Values of pIC50 reported for JAK1 (Homo sapiens) appear below.
pIC50: −log10 of the molar value.

What pIC50 value was documented for this compound, `CC[C@H](Cn1ccc2cnc(Nc3cnn(CC(=O)N(C)S(C)(=O)=O)c3)nc21)C(C)C` ?
> 7.00

What about `CCC(CC)Cn1ccc2cnc(Nc3cnn(CC(=O)NC)c3)nc21` ?
> 7.00

Follow-up entry: `CCC(CC)Cn1ccc2cnc(Nc3cnn(CC(N)=O)c3)nc21`
> 7.00
